These entries and their values trace back to patent US7238688B2.

Test system H3 receptors (Cavia porcellus, UniProt Q9JI35), pKi listed for each of the compounds.
pKi: −log10 of the molar value.
measurement.type: pKi

>>> print(df.to_string())
                                   compound  measurement_type        result
0  Nc1cc(CN2CCC(C(=O)N3CCN(S(=O)(=O)c4cc(Cl)cc(Cl)c4)CC3)CC2)ccn1 [Compound 376]               pKi  7.46 to 9.70
1  CN(c1ccc(Cl)cc1)S(=O)(=O)c1cc(F)ccc1CN1CCN(C(=O)C2CCN(Cc3ccnc(N)c3)CC2)CC1 [Compound 343]               pKi  7.46 to 9.70
